Quick list: composite z-score per entry.
# Test system: Human papillomavirus type 1a protein E7 (residues 44-93)
# test: small molecules binding HPV E7 44-93 – biochemical, small-molecule microarray, residues 44-93, 635 nm fluorescence, primary screen (AID 1108);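 also: E7 fragment applied at 1 µg/mL in TBST for 1 h at 4 C; score combines spot fluorescence with its signal to noise ratio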
# recorded-conditions: fluorescence 635 nm, higher = more signal
// return just the number, without any unit appended

Example entries begin here.
C[N+](C)(C)CCCC[C@@H]1NC(=O)[C@@H]2C[C@H](C(=O)NCCCCCCN)[C@H](c3cccc(OCCO)c3)N2C1=O 0.896
CCCNC(=O)[C@@]1(Sc2ccc(C)cc2)CC(=O)N(C2Cc3ccccc3C2)[C@@H]1c1ccc(CO)cc1I 1.08
COCC(=C=CC[C@H](O)c1ccc(OCCO)cc1)CCO 0.364

Input: Query composite z-score for CC(C)NC(=O)[C@@]1(C)c2ccccc2C(=O)N(Cc2ccc(OC(F)(F)F)cc2)[C@H]1c1ccc(CO)cc1
Output: 0.0959

====

// reported composite z-score per item
# System: wheat germ agglutinin (Triticum aestivum), Alexa647-labelled
# test: Alexa647-WGA lectin binding to printed small molecules – biochemical, small-molecule microarray, 635/667 nm fluorescence, artefact control for SMM control-protein annotation, profiling panel (AID 1140);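 also: score merges 667 nm feature emission with signal to noise over triplicate slides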
# recorded-conditions: WGA-A647 binding, 635 nm fluorescence, higher = more signal
Note: the reply should be a number with no unit written.

Past entries and their recorded results:
molecule	composite z-score
COc1ccc([Si](C)(C)[C@H]2[C@H](CC(=O)N(CCO)Cc3ccccc3)O[C@@]3(C(=O)N(C)c4c(Br)cc(C)cc43)[C@@H]2C)cc1	0.61
[N-]=[N+]=Nc1ccccc1[C@H]1OC(c2ccc(OCCCO)cc2)=N[C@@]1(Cc1ccccc1)C(=O)NCCN1CCOCC1	1.2
COCCOC(=O)N1C(=O)[C@@]2(c3cc(C#CCCO)ccc31)[C@H](C(=O)Nc1nc3ccccc3s1)[C@H]1C(=O)O[C@H](c3ccccc3)[C@H](c3ccccc3)N1[C@@H]2c1ccc(O)cc1	0.777
COc1cc2c(cc1O)C(c1cccs1)N(Cc1cc3c(cc1Br)OCO3)CC2 (stereo not given)	0.544
O=C1N(CCS(=O)(=O)c2ccccc2)c2ccccc2[C@H]2OC(c3ccc(OCCCO)cc3)=N[C@@]12Cc1ccccc1	0.943

Input: Send back wheat germ agglutinin (Triticum aestivum), Alexa647-labelled composite z-score of C[N+](C)(C)CCCC[C@@H]1NC(=O)[C@@H]2C[C@H](C(=O)NCCCCCCN)[C@H](c3cccc(OCCO)c3)N2C1=O only.
Output: 1.11

Input: For wheat germ agglutinin (Triticum aestivum), Alexa647-labelled, give composite z-score of the listed molecule: CCCCC[C@H]1OC[C@@]23C=C(Br)[C@@H](CC12)[C@@]1(CO1)C3=O (stereo not given in full)
Output: -0.407

Input: Return reported composite z-score for target or system wheat germ agglutinin (Triticum aestivum), Alexa647-labelled, item CC1=C2[C@@H](CCc3ccccc3)OB(O)C[C@@H]2[C@@H]2C(=O)N(Cc3ccccc3)C(=O)[C@@H]2C1 .
Output: 0.505

Input: Please indicate recorded composite z-score of CC1CC/C=C\[C@H]2OC34C=CCN(c5ccc6ccccc6c5)C(=O)[C@H]3N(CCCO)C(=O)[C@@H]4C2C(=O)O1 (stereo not given in full) measured with wheat germ agglutinin (Triticum aestivum), Alexa647-labelled.
Output: -0.985

Input: Recall the reported composite z-score of CC(C)(C)OC(=O)COc1cccc(C(=O)CCN2CCOCC2)c1 on wheat germ agglutinin (Triticum aestivum), Alexa647-labelled and write it down.
Output: -0.0945

Input: Provide measured composite z-score on wheat germ agglutinin (Triticum aestivum), Alexa647-labelled for [N-]=[N+]=Nc1ccccc1C[C@@]1(C(=O)N2CCOCC2)N=C(c2ccc(OCCCO)cc2)O[C@@H]1c1ccccc1 please.
Output: 0.313

====

# test: probe aNOTCH3 binding on compound microarray – biochemical, small-molecule microarray, 635/667 nm fluorescence, primary screen (AID 1120);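 also: probe is a biotin-tagged antibody raised against NOTCH3 rather than NOTCH3 protein; score merges spot fluorescence near 667 nm with spot signal to noise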
# recorded-conditions: higher = more signal
attribute-measured: composite z-score

Field: example entries. Status: answers known.
compound	attribute-measured	value-reported
COC(=O)[C@@]1(Cc2ccc(OC)cc2)[C@H]2c3cc(C(=O)N4CCCC4)n(CCc4c[nH]c5ccc(O)cc45)c3C[C@H]2CN1C(=O)c1ccccc1	composite z-score	0.298
CC(C)N1CC=CC23O[C@@H]4C=CCCOC(=O)C4[C@H]2C(=O)N(CCCO)[C@@H]3C1=O (some centres undefined)	composite z-score	-0.112
O=C(C1N=C(c2ccc(OCCCO)cc2)N(c2ccccc2)O1)N1CCCCC1 (centres undefined)	composite z-score	0.304

For the next question, use this compound.
Input: Given the compound [N-]=[N+]=Nc1ccccc1C[C@]1(C(=O)O)COC(c2ccc(OCCCO)cc2)=N1 , write its reported composite z-score.
Output: 0.0116

====

# Tested on: wheat germ agglutinin (Triticum aestivum), Alexa647-labelled
# test: Alexa647-WGA lectin binding to printed small molecules – biochemical, small-molecule microarray, 635/667 nm fluorescence, artefact control for SMM control-protein annotation, profiling panel (AID 1140);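 also: score merges 667 nm feature emission with signal to noise over triplicate slides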
# recorded-conditions: WGA-A647 binding, 635 nm fluorescence, higher = more signal
molecules and their reported composite z-score
I only need the number, thanks.

Use the examples below as a reference point.
molecule	composite z-score
CCCCCN1CC=CC23O[C@@H]4/C=C\CCCOC(=O)C4[C@H]2C(=O)N(C(C)CO)[C@@H]3C1=O (some centres undefined)	0.916
COc1ccc(CCNC(=O)[C@@]2(c3ccc([N+](=O)[O-])cc3)CC(=O)N(C3CCCCC3)[C@@H]2c2ccc(CO)cc2)cc1	0.793
CC1=C2[C@@H](CCc3ccccc3)OB(O)C[C@@H]2[C@@H]2C(=O)N(C)C(=O)[C@@H]2C1	0.344

In the following, a different molecule is considered.
Input: Quick one: give measured composite z-score for CC(C)(C)OC(=O)CC[C@@]1(C(=O)NCC(O)CO)N=C(c2ccc(OCCCO)cc2)O[C@@H]1c1ccccc1CN=[N+]=[N-] (some centres undefined)
Output: 0.299

====

# maps each entry to its composite z-score
# test: small molecules captured by biotinylated probe aFGF10 – biochemical, small-molecule microarray, fluorescence 635/667, stem cell growth factor project, primary screen (AID 1071);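 also: score merges 667 nm spot intensity and signal to noise from triplicate slides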
# recorded-conditions: higher = more signal
The answer should be written as a number, with no unit following it.

Would you please look over these solved cases?
compound	composite z-score
CCOC(=O)C1=C[C@@H](c2ccccc2)N(S(=O)(=O)c2ccc(C)cc2)[C@H]1c1ccc(OC)cc1	0.848
[N-]=[N+]=NCc1ccccc1[C@H]1OC(c2ccc(OCCCO)cc2)=N[C@@]1(Cc1ccccc1N=[N+]=[N-])C(=O)NCC(O)CO (some centres undefined)	0.867

Input: Please supply the value of reported composite z-score for the item COc1ccc(C#Cc2ccc3c(c2)[C@]2(C(=O)N3)[C@H](c3ccc(OCCO)cc3)N3[C@H](c4ccccc4)[C@H](c4ccccc4)OC(=O)[C@H]3[C@@H]2C(=O)NC[C@H](O)c2ccccc2)cc1
Output: 0.422

Input: Answer with reported composite z-score of CCCCCN1CC=CC23O[C@@H]4/C=C\CCCOC(=O)C4[C@H]2C(=O)N(C(C)CO)[C@@H]3C1=O (some centres undefined)
Output: -0.756

====

# test: small molecules captured by biotinylated probe aFGF2 – biochemical, small-molecule microarray, fluorescence 635/667, stem cell growth factor project, primary screen (AID 1067);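 also: measures binding of biotinylated aFGF2 protein to printed compounds on slides; z-score merges feature fluorescence and signal-to-noise across triplicate slides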
# recorded-conditions: higher = more signal
Outcome label depends on composite z-score relative to 0.09: at/above gives yes, below gives no.

Known results for compounds:
compound	category-label
CCCC=C(CCC)[C@@H](NS(=O)(=O)CC12CCC(CC1=O)C2(C)C)c1ccc(C(=O)OC)cc1 (stereo partly specified)	yes
Cn1cccc1C(O)C1C=CC2C(=O)N(c3ccccc3)C(=O)C2N1Nc1ccccc1 (stereo unspecified)	yes
CC(C)N1C(=O)c2ccccc2[C@@H](C(=O)NCCN2CCOCC2)[C@@H]1c1ccc(CO)cc1	no

Input: I'd appreciate it if you could say whether COCCCNC(=O)[C@@]1(CCC(=O)OC(C)(C)C)N=C(c2ccc(OCCCO)cc2)O[C@H]1c1ccccc1N=[N+]=[N-] has composite z-score at least equal to 0.09.
Output: yes

====

# test: blockers of DNA damage checkpoint Chk1 activation – imaging, HeLa, hydroxyurea, phospho-Chk1 antibody, percent positive cells, primary screen (AID 1186)
# recorded-conditions: hydroxyurea-induced phospho-Chk1 immunofluorescence imaging, higher = more signal
Think of -0.3 as a floor: if z-score stands on it or above, it is Criterion met; beneath it, Criterion not met.

compound	category-label
N[C@@H](Cc1ccccc1)C(=O)NCc1cn(Cc2ccccc2)nn1	Criterion met

Continue with the compound presented below.
Input: Hello, I need to know if O=c1cccc(-c2ccc([N+](=O)[O-])cc2)o1 has measured z-score not below -0.3. Thanks!
Output: Criterion not met

# credit: PubChem BioAssay
